target: GFP-AR (wild type androgen receptor) (Homo sapiens, UniProt P10275); test: HT imaging: AR nuclear translocation (FLIN) in stable HeLa GFP-AR cells
Sequence (P10275 whole entry): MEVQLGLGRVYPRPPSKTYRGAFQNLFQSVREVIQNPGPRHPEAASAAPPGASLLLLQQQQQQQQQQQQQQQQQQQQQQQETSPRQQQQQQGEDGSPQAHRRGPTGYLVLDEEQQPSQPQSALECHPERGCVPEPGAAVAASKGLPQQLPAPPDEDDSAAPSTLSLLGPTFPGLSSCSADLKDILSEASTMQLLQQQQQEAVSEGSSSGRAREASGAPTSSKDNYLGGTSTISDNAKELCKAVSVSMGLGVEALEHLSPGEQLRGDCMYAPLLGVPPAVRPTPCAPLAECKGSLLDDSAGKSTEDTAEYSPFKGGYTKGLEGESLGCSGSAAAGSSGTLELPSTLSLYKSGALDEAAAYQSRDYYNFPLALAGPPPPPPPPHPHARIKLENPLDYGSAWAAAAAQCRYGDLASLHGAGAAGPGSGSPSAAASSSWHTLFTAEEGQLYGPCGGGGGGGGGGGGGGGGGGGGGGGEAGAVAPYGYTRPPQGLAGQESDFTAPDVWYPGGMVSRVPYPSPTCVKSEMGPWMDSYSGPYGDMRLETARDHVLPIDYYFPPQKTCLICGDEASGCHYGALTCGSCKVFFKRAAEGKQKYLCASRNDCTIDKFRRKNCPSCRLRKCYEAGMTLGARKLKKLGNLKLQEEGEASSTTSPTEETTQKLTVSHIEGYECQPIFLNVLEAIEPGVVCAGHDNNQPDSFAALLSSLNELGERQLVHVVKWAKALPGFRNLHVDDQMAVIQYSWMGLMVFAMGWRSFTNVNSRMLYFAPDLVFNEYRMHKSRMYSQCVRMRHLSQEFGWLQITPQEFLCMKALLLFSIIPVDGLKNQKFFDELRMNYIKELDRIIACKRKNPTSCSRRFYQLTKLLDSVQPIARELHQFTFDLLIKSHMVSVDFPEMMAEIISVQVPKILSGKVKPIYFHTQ
metricName: IC50 (µM)
Numbers only, in µM.

Param readout= IC50; system= GFP-AR (wild type androgen receptor) (Homo sapiens, UniProt P10275); entry= "CC(C)=CC(=O)O[C@H]1Cc2cc3ccc(=O)oc3cc2OC1(C)C" ; returns value.
13.2

----------
target: GFP-AR (wild type androgen receptor) (Homo sapiens, UniProt P10275); test: HT imaging: AR nuclear hyperspeckling (NVAR) in stable HeLa GFP-AR cells
metricName: pIC50
Give bare numbers, as −log10 of the molar value.

Param readout= pIC50; system= GFP-AR (wild type androgen receptor) (Homo sapiens, UniProt P10275); entry= CC(C)=CC(=O)O[C@H]1Cc2cc3ccc(=O)oc3cc2OC1(C)C [Decursin] ; returns value.
4.91
